SYSTEM: EPHA3 (human) (UniProt P29320)
Sequence (P29320 whole entry, looked up): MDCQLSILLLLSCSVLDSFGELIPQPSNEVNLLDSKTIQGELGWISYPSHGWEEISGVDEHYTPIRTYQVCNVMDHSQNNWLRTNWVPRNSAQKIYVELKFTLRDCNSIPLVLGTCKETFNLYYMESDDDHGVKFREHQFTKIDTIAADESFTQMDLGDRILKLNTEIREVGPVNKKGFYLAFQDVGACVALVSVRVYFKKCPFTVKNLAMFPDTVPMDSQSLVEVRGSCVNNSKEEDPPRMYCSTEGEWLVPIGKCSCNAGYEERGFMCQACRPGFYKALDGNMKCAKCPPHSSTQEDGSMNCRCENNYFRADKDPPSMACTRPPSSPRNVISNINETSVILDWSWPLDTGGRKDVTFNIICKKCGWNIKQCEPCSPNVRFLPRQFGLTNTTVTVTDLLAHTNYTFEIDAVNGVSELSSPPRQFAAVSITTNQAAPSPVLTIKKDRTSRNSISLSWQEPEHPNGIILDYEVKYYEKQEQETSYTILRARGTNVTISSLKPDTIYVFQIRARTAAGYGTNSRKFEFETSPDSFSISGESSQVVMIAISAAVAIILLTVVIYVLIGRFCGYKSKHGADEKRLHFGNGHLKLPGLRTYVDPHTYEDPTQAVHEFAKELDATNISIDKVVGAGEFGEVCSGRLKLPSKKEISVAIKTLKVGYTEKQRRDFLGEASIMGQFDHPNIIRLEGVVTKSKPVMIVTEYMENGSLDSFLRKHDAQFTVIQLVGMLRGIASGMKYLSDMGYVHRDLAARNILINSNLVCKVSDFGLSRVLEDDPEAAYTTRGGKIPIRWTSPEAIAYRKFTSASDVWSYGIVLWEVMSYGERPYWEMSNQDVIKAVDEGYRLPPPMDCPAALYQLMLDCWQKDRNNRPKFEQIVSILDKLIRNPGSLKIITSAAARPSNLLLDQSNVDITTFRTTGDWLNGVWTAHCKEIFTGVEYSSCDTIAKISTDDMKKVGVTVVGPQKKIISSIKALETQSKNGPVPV
ASSAY_TEXT: KINOMEscan competition binding
STATED_CONDITIONS: compound 10.0 µM
Below, each entry is listed with its recorded kinase still bound, per cent of control.
REPORTED_PROPERTY: kinase still bound, per cent of control (%)

smiles=CC[C@@H]1C(=O)N(C)c2cnc(Nc3ccc(C(=O)NC4CCN(C)CC4)cc3OC)nc2N1C1CCCC1 val=100
smiles=C=CC(=O)Nc1cccc(Oc2nc(Nc3ccc(N4CCN(C)CC4)cc3OC)ncc2Cl)c1 val=100
smiles=CCC(=O)N1CCN(c2ccc(-n3c(=O)ccc4cnc5ccc(-c6cnc7ccccc7c6)cc5c43)cc2C(F)(F)F)CC1 val=70
smiles=N#Cc1c(NC(=O)c2cccc3ccccc23)sc2c1CCCC2 val=100
smiles=OCCCNc1cc(-c2ccnc(Nc3cccc(Cl)c3)n2)ccn1 val=100
smiles=O=C1Nc2ccc(I)cc2/C1=C/c1cc(Br)c(O)c(Br)c1 val=66
smiles=Cc1ccc2nc(NCCN)c3ncc(C)n3c2c1 val=100
smiles=O=C(O)c1ccc(Nc2ncc3c(n2)-c2ccc(Cl)cc2C(c2c(F)cccc2F)=NC3)cc1 val=15
smiles=O=C(NOC[C@H](O)CO)c1ccc(F)c(F)c1Nc1ccc(I)cc1F val=100
smiles=CCOc1cc2ncc(C#N)c(Nc3ccc(OCc4ccccn4)c(Cl)c3)c2cc1NC(=O)/C=C/CN(C)C val=85
smiles=Cn1c(=O)n(-c2ccc(C(C)(C)C#N)cc2)c2c3cc(-c4cnc5ccccc5c4)ccc3ncc21 val=100

* * *

SYSTEM: MST4 (human)
ASSAY_TEXT: KINOMEscan competition binding
STATED_CONDITIONS: compound 10.0 µM
REPORTED_PROPERTY: kinase still bound, per cent of control (%)

smiles=COc1cc(N2CCN(C)CC2)ccc1Nc1nc(N)c(C(=O)c2c(Cl)cccc2Cl)s1 val=100
smiles=Cc1ccc(C(=O)Nc2cccc(C(F)(F)F)c2)cc1Nc1cncc(C(N)=O)c1 val=100
smiles=Cc1ccc(NC(=O)c2cccc(C(C)(C)C#N)c2)cc1Nc1ccc2ncn(C)c(=O)c2c1 val=100
smiles=CCN1CCN(Cc2ccc(Nc3ncc4c(n3)N(C)c3ccccc3C(=O)N4C)cc2C(F)(F)F)CC1 val=5.6
smiles=CCC(=O)N1CCN(c2ccc(-n3c(=O)ccc4cnc5ccc(-c6cnc7ccccc7c6)cc5c43)cc2C(F)(F)F)CC1 val=89
smiles=O=C1Nc2ccc(I)cc2/C1=C/c1cc(Br)c(O)c(Br)c1 val=100
smiles=CC[C@@H]1C(=O)N(C)c2cnc(Nc3ccc(C(=O)NC4CCN(C)CC4)cc3OC)nc2N1C1CCCC1 val=100
smiles=CCOc1cc2ncc(C#N)c(Nc3ccc(OCc4ccccn4)c(Cl)c3)c2cc1NC(=O)/C=C/CN(C)C val=2
smiles=Cc1cc([C@@H](C)Nc2ccccc2C(=O)O)c2nc(N3CCOCC3)cc(=O)n2c1 val=100
smiles=CN(C)C/C=C/C(=O)Nc1cccc(Nc2ncc3c(n2)N(C)c2ccccc2C(=O)N3C)c1 val=31
smiles=O=C(NOC[C@H](O)CO)c1ccc(F)c(F)c1Nc1ccc(I)cc1F val=77
smiles=Cn1c(=O)n(-c2ccc(C(C)(C)C#N)cc2)c2c3cc(-c4cnc5ccccc5c4)ccc3ncc21 val=100

* * *

SYSTEM: NEK4 (human) (UniProt P51957)
Sequence (P51957 whole entry, looked up): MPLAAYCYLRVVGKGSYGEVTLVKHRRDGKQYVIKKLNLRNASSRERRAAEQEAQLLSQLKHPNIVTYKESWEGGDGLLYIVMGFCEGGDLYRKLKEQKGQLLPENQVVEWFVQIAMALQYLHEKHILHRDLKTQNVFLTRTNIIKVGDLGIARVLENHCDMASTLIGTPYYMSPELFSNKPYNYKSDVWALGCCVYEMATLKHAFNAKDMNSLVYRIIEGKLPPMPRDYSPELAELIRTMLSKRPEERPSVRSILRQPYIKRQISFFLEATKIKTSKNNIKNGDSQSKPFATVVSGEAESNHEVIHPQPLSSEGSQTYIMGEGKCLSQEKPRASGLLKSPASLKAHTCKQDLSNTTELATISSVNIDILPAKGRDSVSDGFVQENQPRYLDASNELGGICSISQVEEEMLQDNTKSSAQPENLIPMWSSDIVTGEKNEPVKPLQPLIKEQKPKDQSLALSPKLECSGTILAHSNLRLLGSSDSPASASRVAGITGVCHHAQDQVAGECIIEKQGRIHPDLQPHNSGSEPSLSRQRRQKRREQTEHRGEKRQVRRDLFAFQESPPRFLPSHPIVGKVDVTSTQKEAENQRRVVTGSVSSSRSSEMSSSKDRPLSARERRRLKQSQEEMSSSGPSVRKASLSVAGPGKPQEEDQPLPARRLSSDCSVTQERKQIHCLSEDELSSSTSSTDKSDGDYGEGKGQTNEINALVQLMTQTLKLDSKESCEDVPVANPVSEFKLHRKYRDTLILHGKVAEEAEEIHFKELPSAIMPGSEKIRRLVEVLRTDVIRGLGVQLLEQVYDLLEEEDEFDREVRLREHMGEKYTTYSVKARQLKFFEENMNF
ASSAY_TEXT: KINOMEscan competition binding
STATED_CONDITIONS: compound 10.0 µM
Below, each entry is listed with its recorded kinase still bound, per cent of control.
REPORTED_PROPERTY: kinase still bound, per cent of control

smiles=Nc1ccc(-c2ccc3ncc4ccc(=O)n(-c5cccc(C(F)(F)F)c5)c4c3c2)cn1 reported_property="kinase still bound, per cent of control" val=100%
smiles=CCC(=O)N1CCN(c2ccc(-n3c(=O)ccc4cnc5ccc(-c6cnc7ccccc7c6)cc5c43)cc2C(F)(F)F)CC1 reported_property="kinase still bound, per cent of control" val=86%
smiles=CCOc1cc2ncc(C#N)c(Nc3ccc(OCc4ccccn4)c(Cl)c3)c2cc1NC(=O)/C=C/CN(C)C reported_property="kinase still bound, per cent of control" val=100%
smiles=O=C(O)c1ccc(Nc2ncc3c(n2)-c2ccc(Cl)cc2C(c2c(F)cccc2F)=NC3)cc1 reported_property="kinase still bound, per cent of control" val=66%
smiles=CN(C)C/C=C/C(=O)Nc1cccc(Nc2ncc3c(n2)N(C)c2ccccc2C(=O)N3C)c1 reported_property="kinase still bound, per cent of control" val=87%
